target: Protein translocase subunit SecA (Escherichia coli (strain K12)) (UniProt P10408); assay: Assay to Identify E. coli SecA ATPase Inhibitors; assay type: functional; set-up: scale not given: direction of the effect not stated beside the values; details: 30 µM
Sequence (P10408 whole entry): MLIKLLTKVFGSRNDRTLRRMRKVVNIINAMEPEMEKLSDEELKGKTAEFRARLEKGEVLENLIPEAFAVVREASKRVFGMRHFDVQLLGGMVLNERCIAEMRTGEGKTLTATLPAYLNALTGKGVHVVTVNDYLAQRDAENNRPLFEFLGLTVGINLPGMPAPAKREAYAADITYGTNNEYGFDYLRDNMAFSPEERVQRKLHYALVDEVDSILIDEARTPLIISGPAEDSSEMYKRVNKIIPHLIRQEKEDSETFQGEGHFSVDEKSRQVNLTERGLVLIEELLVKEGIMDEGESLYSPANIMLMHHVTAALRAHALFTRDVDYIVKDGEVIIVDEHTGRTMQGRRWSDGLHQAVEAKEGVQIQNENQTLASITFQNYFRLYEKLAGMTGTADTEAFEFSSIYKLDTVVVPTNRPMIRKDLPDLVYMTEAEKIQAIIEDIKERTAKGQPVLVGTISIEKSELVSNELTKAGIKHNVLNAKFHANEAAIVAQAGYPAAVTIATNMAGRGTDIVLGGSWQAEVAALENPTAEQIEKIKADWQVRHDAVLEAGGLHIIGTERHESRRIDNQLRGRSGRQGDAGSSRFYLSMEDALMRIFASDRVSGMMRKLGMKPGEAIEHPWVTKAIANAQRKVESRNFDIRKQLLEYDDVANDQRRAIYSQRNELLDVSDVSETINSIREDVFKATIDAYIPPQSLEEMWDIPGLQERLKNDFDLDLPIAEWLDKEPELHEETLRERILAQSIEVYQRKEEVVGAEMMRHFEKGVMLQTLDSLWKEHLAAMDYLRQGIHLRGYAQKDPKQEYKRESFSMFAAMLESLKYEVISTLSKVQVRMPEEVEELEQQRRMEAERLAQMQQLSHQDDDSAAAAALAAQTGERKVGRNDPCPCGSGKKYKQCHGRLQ
Results with a measured potency or affinity are listed apart.
Here, each record is paired with measured Percent Effect data.
Answer with a number only, understood to be in %.

Take a look at these entries with their results.
O=C(CSC1=NS(=O)(=O)c2cc(F)ccc2N1)Nc1cccc(Cl)c1 : -1.88
COCCc1noc(CN(C)C(=O)c2cccc(N3CCCC3=O)c2)n1 : -2.59
CC(C)c1noc(CN2CCC3(CCCO3)CCC2=O)n1 (stereo unspecified) : -8.4
Fc1ccc(CN2CCCC2Cn2cccn2)c2ncccc12 (stereo unspecified) : -3.18

Turning now to a further compound:
For the compound Cn1cnc2c1C(COCC1CC1)CN(Cc1ccc3c(c1)OCO3)C2 (stereo unspecified) , what Percent Effect is on record? -5.21

====

species: Homo sapiens; test: To identify inhibition of the IFN signalling (Jak-Stat) pathway via expression of an eGFP reporter gene under the control of an IFN-stimulated response element (ISRE) containing MxA promoter.; type: functional; parameters: scale not given: direction of the effect not stated beside the values; conditions: 30 µM
readout: Percent Effect (%)
Answer with a number only, understood to be in %.

Take a look at these entries with their results.
c1ccc(-c2ccc(C3CNCCO3)nc2)cc1 (configuration not stated) : -23.6
Cn1cccc1C(=O)N1CCCN(CCCc2ccccc2)CC1 : 18.6
Cn1cccc1C(=O)N1CCc2ncc(Cn3cccn3)n2CC1 : -2.01

For the compound "CC(C)c1ncc2c(n1)CN(Cc1nc(-c3ccoc3)no1)CC2" , what Percent Effect is on record? 12.5

For the compound COc1cccc2ccn(CCC(=O)N3CCCC(C(=O)O)C3)c12 (configuration not stated) , what Percent Effect is on record? 6.03

For the compound COc1cccc(CN2CCOC(Cn3nc(C)cc3C)C2)c1 (configuration not stated) , what Percent Effect is on record? -11.1

====

molecular target: Chromo domain-containing protein 1 (Saccharomyces cerevisiae (strain ATCC 204508 / S288c) (Baker's yeast)) (UniProt P32657); assay: ScCHD-1 Enzyme Inhibition Assay; format: functional; parameters: scale not given: in the data most compounds retested in dose-response had high values; conditions: 30 µM
Sequence (P32657 whole entry, the tested form may be a part): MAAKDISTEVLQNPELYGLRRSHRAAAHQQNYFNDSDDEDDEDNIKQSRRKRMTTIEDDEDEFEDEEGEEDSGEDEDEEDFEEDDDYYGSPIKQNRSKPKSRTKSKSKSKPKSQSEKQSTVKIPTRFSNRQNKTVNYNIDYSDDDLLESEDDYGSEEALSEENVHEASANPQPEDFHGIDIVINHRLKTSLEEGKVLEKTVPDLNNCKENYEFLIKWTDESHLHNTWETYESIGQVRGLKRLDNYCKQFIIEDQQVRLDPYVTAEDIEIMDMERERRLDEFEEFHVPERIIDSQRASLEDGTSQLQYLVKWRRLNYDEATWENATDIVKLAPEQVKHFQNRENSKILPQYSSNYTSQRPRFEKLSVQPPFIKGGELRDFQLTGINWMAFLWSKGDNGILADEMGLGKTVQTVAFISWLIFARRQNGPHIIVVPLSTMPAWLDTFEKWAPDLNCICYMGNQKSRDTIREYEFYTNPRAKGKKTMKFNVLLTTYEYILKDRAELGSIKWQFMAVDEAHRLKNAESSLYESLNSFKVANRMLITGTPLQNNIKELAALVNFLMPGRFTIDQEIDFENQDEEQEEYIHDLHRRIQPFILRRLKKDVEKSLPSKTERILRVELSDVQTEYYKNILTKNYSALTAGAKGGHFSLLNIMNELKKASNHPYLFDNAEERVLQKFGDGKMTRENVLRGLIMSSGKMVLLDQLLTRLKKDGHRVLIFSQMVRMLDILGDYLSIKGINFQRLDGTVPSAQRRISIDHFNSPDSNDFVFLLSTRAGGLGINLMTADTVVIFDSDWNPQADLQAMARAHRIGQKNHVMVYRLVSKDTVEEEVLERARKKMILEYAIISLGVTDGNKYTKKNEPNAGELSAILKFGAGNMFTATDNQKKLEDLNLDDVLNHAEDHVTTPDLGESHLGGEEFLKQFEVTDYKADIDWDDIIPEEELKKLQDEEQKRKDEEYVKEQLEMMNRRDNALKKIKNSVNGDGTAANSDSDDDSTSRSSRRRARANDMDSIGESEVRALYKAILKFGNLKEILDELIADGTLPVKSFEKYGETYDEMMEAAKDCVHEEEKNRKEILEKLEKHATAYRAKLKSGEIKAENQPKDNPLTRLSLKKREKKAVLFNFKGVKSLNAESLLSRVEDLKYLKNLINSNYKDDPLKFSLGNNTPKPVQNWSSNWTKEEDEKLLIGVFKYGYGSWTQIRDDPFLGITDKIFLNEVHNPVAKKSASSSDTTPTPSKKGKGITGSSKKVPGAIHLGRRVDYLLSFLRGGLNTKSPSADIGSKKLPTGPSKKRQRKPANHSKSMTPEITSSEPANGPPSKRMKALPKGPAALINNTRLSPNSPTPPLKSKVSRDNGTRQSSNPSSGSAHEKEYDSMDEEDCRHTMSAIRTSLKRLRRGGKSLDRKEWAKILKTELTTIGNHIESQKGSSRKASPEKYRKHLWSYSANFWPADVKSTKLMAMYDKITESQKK
readout: Percent Effect (%)
Answer with a number only, understood to be in %.

For the compound "Cc1noc(C2CCN(Cc3cc(=O)n(C)c(=O)n3C)CC2)n1" , what Percent Effect is on record? -9.16

====

target: Ubiquitin-activating enzyme e1, putative (Leishmania donovani (strain BPK282A1)); assay: Leishmania donovani Ubiquitin Activating Enzyme (LdE1); format: functional; parameters: scale not given: direction of the effect not stated beside the values; details: 30 µM
Results with a measured potency or affinity are listed apart.
readout: Percent Effect
Number plus unit, in that order.

Take a look at these entries with their results.
Cc1cc(CNC2CCCN(c3cccnn3)C2)no1 (configuration not stated) : -2.6%
CC(C)(CNC(=O)NCCOc1cccc(F)c1)C(N)=O : 7.89%
CN1CCCC1c1cccc(Cc2ccccc2F)n1 (configuration not stated) : -20.3%
O=C(c1cc[nH]n1)N1CCCC(c2cccc(-n3ccnc3)n2)C1 (configuration not stated) : 12%
CN1CCN(c2ncc3c(=O)n(-c4cccc(F)c4)c(=O)[nH]c3n2)CC1 : 13.2%

For the compound Cc1nn(C)c(C)c1C1CCCN1Cc1nc(C)c2ccccc2n1 (configuration not stated) , what Percent Effect is on record? 3.8%

====

Here, each record is paired with measured Percent Effect data.
target: Proteasome subunit beta (Trypanosoma cruzi); experiment: Trypanosoma cruzi proteasome chymotrypsin-like activity (TcProtChymo) assay.; type: functional; set-up: scale not given: in the data most compounds retested in dose-response had high values; conditions: 9.37 µM
Answer with a number only, understood to be in %.

COCc1noc(C2(c3ccc(Br)cc3)CCOCC2)n1 : 9.83
COC(=O)c1cccn1C1CCN(C(=O)c2cc(C)ccc2O)CC1 : 6.25
Cc1ccc(CC(=O)N2Cc3nccn3CC(Cn3cccn3)C2)cc1 (centres undefined) : 11.2
Cc1cc(C)n(C2CN(CC(=O)NCC(C)(C)N3CCOCC3)C2)n1 : 8.92
Cc1cn2nc(N3CCCC3Cn3nc(C)cc3C)sc2n1 (centres undefined) : 9.43

For the compound "COCC(=O)N1CCN(Cc2coc(-c3cccc(F)c3)n2)CC1" , what Percent Effect is on record? 1.18

For the compound "CCCc1nc(C(=O)N2CCCn3nc(CCC(=O)O)cc3C2)cs1" , what Percent Effect is on record? 11

For the compound "CC(C)n1ccnc1C1CCN(C(=O)c2ccccc2)CC1" , what Percent Effect is on record? 14

For the compound Cc1nccn1-c1cccc(C2CCCN(C3CCCCC3)C2)n1 (centres undefined) , what Percent Effect is on record? 14.8

For the compound "CNC(=O)c1cccnc1Oc1ccccc1" , what Percent Effect is on record? 13.5

For the compound CC(=O)N1CC(=O)N(c2cnn(C)c2)CC12CCN(CC1CC1)C2 (centres undefined) , what Percent Effect is on record? 0.423

For the compound "CN1CCC/C1=N\S(=O)(=O)c1ccc(NC(=O)c2ccc(F)cc2)cc1" , what Percent Effect is on record? 9.82

For the compound CCn1ncc2c1CCCC2NCC1=Cc2ccccc2OC1 (centres undefined) , what Percent Effect is on record? 10.1

For the compound "Cc1cc(NCc2cccnc2)n2nc(C)cc2n1" , what Percent Effect is on record? 16.9

For the compound Cc1cnn(CC2CCCN2C(=O)c2cc(C)no2)c1 (centres undefined) , what Percent Effect is on record? -4.65

For the compound "CCc1nc(CN2CCCN(C(=O)COCC3CC3)CC2)cs1" , what Percent Effect is on record? 9.64

For the compound "CC(C)CNC(=O)Nc1ccc(CN2CCOC2=O)cc1" , what Percent Effect is on record? 12.8

====

target: Protein translocase subunit SecA (Escherichia coli (strain K12)) (UniProt P10408); test: Assay to Identify E. coli SecA ATPase Inhibitors; assay type: functional; set-up: scale not given: direction of the effect not stated beside the values; details: 30 µM
Entries with a potency or affinity are not part of this list.
Here, each record is paired with measured Percent Effect data.
Answer with a number only, understood to be in %.

Cc1cc(C(=O)N2CCc3nnc(N)cc3C2)c(C)n1C1CC1 : -4.88
O=C(CSc1ncccn1)N1C[C@H]2CC[C@@H]1CN(Cc1ccncc1)C2 : -4.87
CCO[C@@H]1CO[C@@]2(CCCN(S(=O)(=O)c3cccnc3)C2)C1 : -2.66

For the molecule CC(=O)N1CCC(Cc2cnc(-c3c(C)nn(C)c3C)cn2)C1 (centres undefined) , what Percent Effect is on record? -3.33

For the molecule CC(=O)c1cccc(OCCCC(=O)NCC2CCCN2C)c1 (centres undefined) , what Percent Effect is on record? -3.97

For the molecule "CN(Cc1cnn(C)c1)C(=O)Cn1c(CS(C)(=O)=O)nc2ccccc21" , what Percent Effect is on record? -1.5

For the molecule Cc1c(Br)cccc1C(=O)NC(C)CN1CCCC1=O (centres undefined) , what Percent Effect is on record? -3.78

For the molecule CCc1ccc(NC(=O)C2OC(c3cccs3)=NN2C(C)=O)cc1 (centres undefined) , what Percent Effect is on record? -5.81

For the molecule Cc1nc(-c2ccc(C(=O)O)cc2)cc(C2CCN(C(C)C)C2)n1 (centres undefined) , what Percent Effect is on record? -2.82

For the molecule Cc1cccc(CN2CCN(Cc3ccccc3)CC(O)C2)n1 (centres undefined) , what Percent Effect is on record? -1.78

For the molecule "Cc1ccc(N2CC[C@H]3O[C@@H](C(=O)NCc4ccco4)CC[C@H]32)nn1" , what Percent Effect is on record? -3.84

For the molecule c1ccc2oc(CCCN3CCOC(Cn4cccn4)C3)nc2c1 (centres undefined) , what Percent Effect is on record? -3.85

For the molecule Cc1cnn(CC2CCCN2CCc2nc3ccccc3c(=O)[nH]2)c1 (centres undefined) , what Percent Effect is on record? -3.81

For the molecule "CCn1ccnc1CN1CCCN(C(=O)c2sccc2C#N)CC1" , what Percent Effect is on record? -2.7

For the molecule "Cc1nn(C)c(Cl)c1CNCc1cccnc1N1CCN(C)CC1" , what Percent Effect is on record? -3.92

For the molecule CC(=O)NC1CCCN(C(=O)NCc2ccc(-c3ccn[nH]3)cc2)C1 (centres undefined) , what Percent Effect is on record? -4.57

For the molecule CN(CC1CN(Cc2cn3ccsc3n2)CCO1)c1cccnn1 (centres undefined) , what Percent Effect is on record? -3.37

For the molecule "CC(C)n1ccnc1C1CCN(C(=O)c2ccccc2)CC1" , what Percent Effect is on record? -5.35

For the molecule COc1cccc(CCC(=O)N2CCCC(n3cc(C)cn3)C2)c1 (centres undefined) , what Percent Effect is on record? 0.219
